experimentalProtocol: SRB assay for cytotoxic effect in RAW 264.7 cells under the NO assay condition
Assay type: cell-based, murine
measurementConditions: mouse, RAW 264.7 macrophage cells (LPS-activated); RAW 264.7 cells, SRB
observationType: IC50 at 20 h (µM)
The answer is to be given in µM; state only the numeric part.

Q: Look up IC50 at 20 h for this compound: C=C1CCC[C@H]2[C@](C)(CC[C@]3(C)CC[C@H]([C@@H](C)C(=O)O)OO3)[C@@H](C)CC[C@]12C
Result: 42.7

Q: Look up IC50 at 20 h for this compound: CC1=C(CC/C(C)=C/CC[C@@]2(C)CC[C@@H]([C@H](C)C(=O)O)OO2)C(C)(C)CCC1 [Compound 1, epimuqubilin A]
Result: 37.1
